Biological target: T1, human MIC-1 receptor (hGFRAL, GDNF family receptor alpha like) (human, UniProt Q6UXV0 19-394)
T1 sequence (looked up): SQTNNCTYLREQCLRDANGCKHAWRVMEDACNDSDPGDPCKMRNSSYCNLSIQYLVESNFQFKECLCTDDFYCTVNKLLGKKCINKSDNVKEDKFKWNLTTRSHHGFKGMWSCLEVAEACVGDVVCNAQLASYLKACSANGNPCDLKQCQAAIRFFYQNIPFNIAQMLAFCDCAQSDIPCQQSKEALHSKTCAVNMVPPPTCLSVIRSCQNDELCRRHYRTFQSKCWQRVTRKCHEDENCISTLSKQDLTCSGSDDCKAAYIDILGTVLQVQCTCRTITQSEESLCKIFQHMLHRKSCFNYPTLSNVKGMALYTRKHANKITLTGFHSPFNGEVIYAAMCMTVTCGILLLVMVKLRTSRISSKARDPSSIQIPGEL
Experiment: cell-based or functional assay
Result Type: pERK EC50 (nM)
Quick reminder: number only, in nM, skip the unit.

Previously resolved entries follow.
The recorded pERK EC50 (nM) for entry SEPATSGSETPGTSESATPESGPGTSTEPS-MIC-1-Δ1-3 (ligand) SEPATSGSETPGTSESATPESGPGTSTEPSGDHCPLGPGRCCRLHTVRASLEDLGWADWVLSPREVQVTMCIGACPSQFRAANMHAQIKTSLHRLKPDTVPAPCCVPASYNPMVLIQKTDTGVSLQTYDDLLAKDCHCI equals 0.4

The recorded pERK EC50 (nM) for entry SEPATSGSETPGTSESATPESGPG TSTEPSEG-MIC-1-Δ1-3 (ligand) SEPATSGSETPGTSESATPESGPGTSTEPSEGGDHCPLGPGRCCRLHTVRASLEDLGWADWVLSPREVQVTMCIGACPSQFRAANMHAQIKTSLHRLKPDTVPAPCCVPASYNPMVLIQKTDTGVSLQTYDDLLAKDCHCI equals 0.4

The recorded pERK EC50 (nM) for entry MIC-1(R2A, N3E, K107E) (ligand) AAEGDHCPLGPGRCCRLHTVRASLEDLGWADWVLSPREVQVTMCIGACPSQFRAANMHAQIKTSLHRLKPDTVPAPCCVPASYNPMVLIQKTDTGVSLQTYDDLLAEDCHCI equals 0.3

The recorded pERK EC50 (nM) for entry MIC-1(R2A, N3E, L105E) (ligand) AAEGDHCPLGPGRCCRLHTVRASLEDLGWADWVLSPREVQVTMCIGACPSQFRAANMHAQIKTSLHRLKPDTVPAPCCVPASYNPMVLIQKTDTGVSLQTYDDLEAKDCHCI equals 0.7

The recorded pERK EC50 (nM) for entry MIC-1(R2A, N3E, R67E) (ligand) AAEGDHCPLGPGRCCRLHTVRASLEDLGWADWVLSPREVQVTMCIGACPSQFRAANMHAQIKTSLHELKPDTVPAPCCVPASYNPMVLIQKTDTGVSLQTYDDLLAKDCHCI equals 0.5

***
The recorded pERK EC50 (nM) for entry MIC-1(R2A, N3E) (ligand) AAEGDHCPLGPGRCCRLHTVRASLEDLGWADWVLSPREVQVTMCIGACPSQFRAANMHAQIKTSLHRLKPDTVPAPCCVPASYNPMVLIQKTDTGVSLQTYDDLLAKDCHCI equals 0.3

The recorded pERK EC50 (nM) for entry AES-MIC-1-Δ1-3 (ligand) AESGDHCPLGPGRCCRLHTVRASLEDLGWADWVLSPREVQVTMCIGACPSQFRAANMHAQIKTSLHRLKPDTVPAPCCVPASYNPMVLIQKTDTGVSLQTYDDLLAKDCHCI equals 0.3

The recorded pERK EC50 (nM) for entry AASPAGSPTSTEEGTSESATPESGPG-MIC-1-Δ1-3 (ligand) AASPAGSPTSTEEGTSESATPESGPGGDHCPLGPGRCCRLHTVRASLEDLGWADWVLSPREVQVTMCIGACPSQFRAANMHAQIKTSLHRLKPDTVPAPCCVPASYNPMVLIQKTDTGVSLQTYDDLLAKDCHCI equals 0.7
